- test-target: HIV-1 YU2 gp120 (HIV-1 YU2, UniProt P35961 32-498)
- experiment-description: SPR
recorded-endpoint: k-1 (step 1, dissociation) (s⁻¹)
API: value field is a number in s⁻¹; no unit string.

// below: answered binders
binder	measurement-unit	k-1 (step 1, dissociation)
MVN_G43E/Q81K (natural protein) MPNFSHTCSSINYDPDSTILSAECQARDGEWLPTELRLSDHIENIDGELQFGDQNFQETCQDCHLEFGDGEQSVWLVCTCKTMDGEWKSTQILLDSQIDNNDSQLEIG	s⁻¹	0.064
MVN_G43E/M83R (natural protein) MPNFSHTCSSINYDPDSTILSAECQARDGEWLPTELRLSDHIENIDGELQFGDQNFQETCQDCHLEFGDGEQSVWLVCTCQTRDGEWKSTQILLDSQIDNNDSQLEIG	s⁻¹	0.045
MVN_G85Q (natural protein) MPNFSHTCSSINYDPDSTILSAECQARDGEWLPTELRLSDHIGNIDGELQFGDQNFQETCQDCHLEFGDGEQSVWLVCTCQTMDQEWKSTQILLDSQIDNNDSQLEIG	s⁻¹	0.071

Attention now turns to another entry.
Would you mind telling me what k-1 (step 1, dissociation) value was observed for MVN_Q81K/G85Q (natural protein) MPNFSHTCSSINYDPDSTILSAECQARDGEWLPTELRLSDHIGNIDGELQFGDQNFQETCQDCHLEFGDGEQSVWLVCTCKTMDQEWKSTQILLDSQIDNNDSQLEIG ?
0.053
